These data points were gathered from the supplement of paper PMC8253809.

Here the recorded EC50 (log10 M) is given for each entry.
Test system: SUDIPGXVII (diffuse intrinsic pontine glioma line)
Assay Protocol: EC50 (inflection of fitted growth-inhibition curve) (log10 M)
Measured Attribute: EC50 (log10 M)

INSERT INTO assay_data (compound, measured_attribute, observed_result) VALUES
  ('C=CCNC1=C2C[C@@H](C)C[C@H](OC)[C@H](O)[C@@H](C)/C=C(\C)[C@H](OC(N)=O)[C@@H](OC)/C=C\C=C(/C)C(=O)NC(=CC1=O)C2=O', 'EC50 (log10 M)', -4.99),
  ('CCN1CCN(Cc2ccc(Nc3ncc(F)c(-c4cc(F)c5nc(C)n(C(C)C)c5c4)n3)nc2)CC1', 'EC50 (log10 M)', -6.01),
  ('C=CCn1c(=O)c2cnc(Nc3ccc(N4CCN(C)CC4)cc3)nc2n1-c1cccc(C(C)(C)O)n1', 'EC50 (log10 M)', -5.54),
  ('CCCS(=O)(=O)c1nc(NC2CC2)cc(-c2ccc3c(ccn3C3CC(C)(C)NC(C)(C)C3)c2)n1', 'EC50 (log10 M)', -5.75),
  ('COC(=O)[C@]12CCC(C)(C)C[C@H]1[C@H]1C(=O)C=C3[C@@]4(C)C=C(C#N)C(=O)C(C)(C)[C@@H]4CC[C@@]3(C)[C@]1(C)CC2', 'EC50 (log10 M)', -5.59),
  ('COc1ccc(C[C@H](NC(=O)[C@H](C)NC(=O)CN2CCOCC2)C(=O)N[C@@H](Cc2ccccc2)C(=O)C2(C)CO2)cc1 (stereo in doubt)', 'EC50 (log10 M)', -5.91),
  ('CC(=O)OC[C@H]1O[C@@H]([S-])[C@H](OC(C)=O)[C@@H](OC(C)=O)[C@@H]1OC(C)=O.CCP(CC)CC.[Au+]', 'EC50 (log10 M)', -5.45),
  ('CN(C)C/C=C/C(=O)Nc1ccc(C(=O)Nc2cccc(Nc3ncc(Cl)c(-c4c[nH]c5ccccc45)n3)c2)cc1', 'EC50 (log10 M)', -7.78),
  ('O=C1NC(=O)C(c2cnc3ccccn23)=C1c1cn2c3c(cc(F)cc13)CN(C(=O)N1CCCCC1)CC2', 'EC50 (log10 M)', -4.97),
  ('CN1CCCN(C(=O)c2cccc(-c3ccc(/C=C4/C(=O)Nc5ccc(Cl)cc54)o3)c2)CC1', 'EC50 (log10 M)', -5.25),
  ('CC(C)(C)OC(=O)Nc1ccc(-c2cc(C(=O)NCCCCCCC(=O)NO)no2)cc1', 'EC50 (log10 M)', -5.09),
  ('CC(C)C[C@H](NC(=O)[C@H](Cc1ccccc1)NC(=O)c1cnccn1)B(O)O', 'EC50 (log10 M)', -8.34),
  ('C[C@@H]1O[C@@H](O[C@H]2C[C@@H](O)[C@]3(CO)[C@H]4[C@H](O)C[C@]5(C)[C@@H](C6=CC(=O)OC6)CC[C@]5(O)[C@@H]4CC[C@]3(O)C2)[C@H](O)[C@H](O)[C@H]1O', 'EC50 (log10 M)', -6.53),
  ('CC(C)c1cc(C(=O)N2Cc3ccc(CN4CCN(C)CC4)cc3C2)c(O)cc1O', 'EC50 (log10 M)', -6.44);

###

Tested on: HGGX6 (H3.3 G34R paediatric high-grade glioma line)
Assay Protocol: area under dose-response curve of % growth inhibition (log2 RLU vs DMSO / staurosporine), 1e-11 to 1e-4 M (% x log10 M); higher = more growth inhibition
Cut-off 90 on area under dose-response curve, inclusive. At or above means class 1; below means class 0.

INSERT INTO results (molecule, answer_label) VALUES
  ('Cc1ccc(NC2=CC(=O)c3sc(C)nc3C2=O)cc1', 'class 1'),
  ('COc1ccccc1S(=O)(=O)Nc1ccc2c(c1)CN(C)C(=O)N2', 'class 0'),
  ('CC[C@@H](C(=O)[C@@H](C)[C@@H](O)[C@H](C)[C@@H]1O[C@@H]([C@@H](CC)C(=O)O)CC[C@@H]1C)[C@H]1O[C@]2(C=C[C@@H](O)[C@]3(CC[C@@](C)([C@H]4CC[C@](O)(CC)[C@H](C)O4)O3)O2)[C@H](C)C[C@@H]1C', 'class 0'),
  ('COc1cc2nc(N3CCCC3)nc(NCCCCCN3CCCC3)c2cc1OC', 'class 0'),
  ('O=C(CCCCCCC(=O)Nc1ccc([C@H]2O[C@@H](CSc3nc(-c4ccccc4)c(-c4ccccc4)o3)C[C@@H](c3ccc(CO)cc3)O2)cc1)NO', 'class 0'),
  ('CCN(CC)CCNC(=O)c1c(C)[nH]c(/C=C2\C(=O)Nc3ccc(F)cc32)c1C', 'class 1'),
  ('COc1cc2/c(=N/c3ccc(Br)cc3F)nc[nH]c2cc1OCC1CCN(C)CC1', 'class 0');
